# System: parental HEK cells
# method.notes: HEK parental Agonist Counterscreen Assay (non-transfected cells)
# Format: cell-based
# test.parameters: HEK Agonist Activity section
The molecules listed here are annotated with their Lipophilic Efficiency (logP).
Lab note: write the figure by itself, no unit.

Please review the entries below; each comes with its answer.
molecule: N[C@H](Cc1ccccc1Cl)c1nc2ccc(-c3ccncc3)cc2[nH]1.O=C(O)C(F)(F)F.O=C(O)C(F)(F)F [SR-00000003277]
Lipophilic Efficiency (logP): 1.13
//
molecule: Cc1ccccc1-c1nc(C[S+]([O-])CC(=O)NC(C)CCc2ccccc2)c(C)o1 (stereo not shown) [SR-01000129545]
Lipophilic Efficiency (logP): 1.09

[Q] What value of measured Lipophilic Efficiency (logP) is listed for Cc1ccc(NC(=O)CSC2=C(C#N)C(c3ccc(F)cc3)CC(=O)N2)c(C)c1 (stereo not shown) [SR-01000484494] ?
[A] 0.89

[Q] Sample Cc1cccnc1NC(=O)Cn1ncc2c1-c1ccccc1OC2 [SR-01000152365] — what was its Lipophilic Efficiency (logP)?
[A] 2.49

###

# target: GPR139 (Homo sapiens, UniProt Q6DWJ6)
# Sequence (Q6DWJ6 whole entry): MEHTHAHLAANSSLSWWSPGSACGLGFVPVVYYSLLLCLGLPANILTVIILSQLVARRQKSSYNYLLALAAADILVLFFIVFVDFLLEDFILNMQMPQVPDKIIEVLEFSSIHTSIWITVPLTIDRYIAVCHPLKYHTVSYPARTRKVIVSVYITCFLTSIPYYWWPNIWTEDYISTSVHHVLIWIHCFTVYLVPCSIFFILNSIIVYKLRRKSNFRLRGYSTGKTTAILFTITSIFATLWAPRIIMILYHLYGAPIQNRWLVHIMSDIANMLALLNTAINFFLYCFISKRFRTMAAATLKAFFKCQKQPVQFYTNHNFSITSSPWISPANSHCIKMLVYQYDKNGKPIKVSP
# method.notes: GPR139 Agonist titration / agonist counterscreen assay (calcium detection, HEK-GPR139 cells)
# Type: cell-based
# Parameters: expressed in transfected cells; host or cells: HEK Aequorin cells, Maxcyte transient transfection
# test.parameters: GPR139 Agonist Activity; activity relative to known control
The entries below are paired with their reported Averaged Max % Response (±St. Dev.).
The figure you give is taken to be in %; do not add the unit.

compound: NC1=NC(=O)/C(=C\c2ccc(Cl)cc2Cl)S1
Averaged Max % Response (±St. Dev.) (%): 80.08
//
compound: CCOC(=O)c1ccc(CSc2nnc(N)s2)cc1
Averaged Max % Response (±St. Dev.) (%): 86.25
//
compound: COc1ccccc1NC(=O)NNC(=O)CSc1cc(C)c(Br)cc1C
Averaged Max % Response (±St. Dev.) (%): 120.81
//
compound: O=C(CN1C(=O)NC2(CCc3ccccc3C2)C1=O)Nc1ccccc1Oc1ccccc1 (centres unmarked)
Averaged Max % Response (±St. Dev.) (%): 134.67
//
compound: O=C(CCc1nc2ccccc2n1-c1ccccc1)NCCc1ccccc1
Averaged Max % Response (±St. Dev.) (%): 136.02
//
compound: C=C1C(CC(=C)C2Cc3ccc4ccccc4c3C2)=CC(c2ccccc2)=CC1C (centres unmarked)
Averaged Max % Response (±St. Dev.) (%): 80.59

[Q] Which Averaged Max % Response (±St. Dev.) is reported for this compound? Cc1[nH]ncc1-c1ccc(NC(=O)C2COc3ccc(F)cc3C2)c(OCCN2CCOCC2)c1.O=C(O)C(F)(F)F.O=C(O)C(F)(F)F (centres unmarked)
[A] 87.23

[Q] What does the data say about its Averaged Max % Response (±St. Dev.)? Entry: `COc1ccc(CCC(=O)Nc2ccc(OC)c(N3CCCC3=O)c2)cc1`
[A] 111.55

###

# target: UniProt Q6DWJ6
# method.notes: GPR139 Agonist titration / agonist counterscreen assay (calcium detection, HEK-GPR139 cells)
# Format: cell-based
# Design: expressed in transfected cells; host or cells: HEK Aequorin cells, Maxcyte transient transfection
# test.parameters: GPR139 Agonist Activity; based on logD
quantity.name: Lipophilic Efficiency (logD)
Form: value (number only, do not type unit).

Consider the reported Lipophilic Efficiency (logD) for these molecules:
molecule: O=C(NCCc1ccc(Cl)cc1)c1ccc(N2CC3CC(C2)c2cccc(=O)n2C3)c(NS(=O)(=O)c2ccc3c(c2)OCCO3)c1 (stereo not drawn)
target: UniProt Q6DWJ6
obs.value: 3.89
//
molecule: COc1ccc(CCC(=O)Nc2ccc(OC)c(N3CCCC3=O)c2)cc1
target: UniProt Q6DWJ6
obs.value: 4.82

[Q] Fill in the blank: the reported Lipophilic Efficiency (logD) of `O=C(COc1ccc2ccccc2c1)NNC(=O)Cc1cccc2ccccc12` is ____.
[A] 3.15

[Q] For the molecule shown here, `CCCCNC(=O)NNC(=O)CSc1cc(C)c(Br)cc1C` , give the reported Lipophilic Efficiency (logD).
[A] 4.41

[Q] What measured Lipophilic Efficiency (logD) goes with `O=C(CN1CCN(Cc2ccccc2Cl)C1=O)NC1CCCCCCC1` ?
[A] 3.53

###

# System: parental HEK cells
# method.notes: HEK parental Agonist Counterscreen Assay (non-transfected cells)
# Format: cell-based
# test.parameters: HEK Agonist Activity section of Table 4 (parental HEK counterscreen)
# Text: The high control for the agonist counterscreen was Forskolin not acetylcholine.
Recorded EC50 for the following molecules

Would you please look over these solved cases?
molecule: O=C(CSc1ccc(Cl)cc1)Nc1nnc(-c2ccc(F)cc2)o1 [SR-01000021435]
EC50: > 13.9 µM
--
molecule: Cc1[nH]ncc1-c1ccc(NC(=O)C2COc3ccc(F)cc3C2)c(OCCN2CCOCC2)c1.O=C(O)C(F)(F)F.O=C(O)C(F)(F)F (stereo not shown) [SR-00000005393]
EC50: > 14.1 µM
--
molecule: Cc1cccc(OCC(=O)NNC(=O)C(C)Oc2ccc(Cl)cc2Cl)c1 (stereo not shown) [SR-01000318010]
EC50: > 14.1 µM

Turning now to a further record.
[Q] Fill in the blank: the reported EC50 of Cc1nn(-c2ccccc2)nc1C(=O)NNC(=O)CSCc1cccc2ccccc12 [SR-01000634249] is ____.
[A] > 14.1 µM

###

# target: GPR139 (Homo sapiens, UniProt Q6DWJ6)
# method.notes: GPR139 Agonist titration / agonist counterscreen assay (calcium detection, HEK-GPR139 cells)
# Assay type: cell-based
# Set-up: expressed in transfected cells; host or cells: HEK Aequorin cells, Maxcyte transient transfection
# test.parameters: GPR139 Agonist Activity
quantity.name: Efficiency Ligand
# answer = number (no unit)

Solved cases (10 shown):
compound: O=C(Cn1ncn2cccc2c1=O)NCCc1ccc(Cl)cc1
target: GPR139 (Homo sapiens, UniProt Q6DWJ6)
Efficiency Ligand: 0.40
--
compound: Cc1ccc(CCC(=O)NNC(=O)CCc2ccccc2)c(Br)c1
target: GPR139 (Homo sapiens, UniProt Q6DWJ6)
Efficiency Ligand: 0.36
--
compound: Cc1cccc(-n2cnc3cc(C(=O)NCc4ccc5c(c4)OCO5)ccc32)c1
target: GPR139 (Homo sapiens, UniProt Q6DWJ6)
Efficiency Ligand: 0.28
--
compound: Cc1ccccc1-c1nc(C[S+]([O-])CC(=O)NC(C)CCc2ccccc2)c(C)o1 (stereo not drawn)
target: GPR139 (Homo sapiens, UniProt Q6DWJ6)
Efficiency Ligand: 0.30
--
compound: O=C(CCc1nc2ccccc2s1)NNC(=O)CSc1ccccc1F
target: GPR139 (Homo sapiens, UniProt Q6DWJ6)
Efficiency Ligand: 0.35
--
compound: N#Cc1ccc(OC(=O)COc2cccc3ccccc23)cc1
target: GPR139 (Homo sapiens, UniProt Q6DWJ6)
Efficiency Ligand: 0.38
--
compound: CCSc1nc2sccn2c(=O)c1C(=O)NC(C)c1ccccc1 (stereo not drawn)
target: GPR139 (Homo sapiens, UniProt Q6DWJ6)
Efficiency Ligand: 0.36
--
compound: O=C(O)COc1cc(Br)c(Br)c(Br)c1O
target: GPR139 (Homo sapiens, UniProt Q6DWJ6)
Efficiency Ligand: 0.54
--
compound: O=C1CCCCN1c1cccc(NS(=O)(=O)c2cc(Cl)ccc2Cl)c1
target: GPR139 (Homo sapiens, UniProt Q6DWJ6)
Efficiency Ligand: 0.36
--
compound: O=C(CCS(=O)(=O)c1cccc2nonc12)NCCc1ccc(Cl)cc1
target: GPR139 (Homo sapiens, UniProt Q6DWJ6)
Efficiency Ligand: 0.30

[Q] Efficiency Ligand lookup needed for `Cc1ccc2c(c1)-c1c(cnn1CC(=O)Nc1ncccc1C)CO2` , thanks.
[A] 0.34

[Q] Field request: Efficiency Ligand | item: `CC(C)(C)c1cn2cccc(OCc3ccc(Cl)c(Cl)c3)c2n1`
[A] 0.39

[Q] Requested field: Efficiency Ligand. Item: `O=C(CN1CCCN(Cc2ccc(F)cc2Cl)C1=O)NC1CCCC1`
[A] 0.37

[Q] Query (compound): CCC(=O)NNC(=O)C(C)Oc1ccc(Cl)cc1Cl (stereo not drawn) ; field requested: Efficiency Ligand
[A] 0.46

[Q] Recorded Efficiency Ligand for `Cc1nn(-c2ccccc2)nc1C(=O)NNC(=O)CSCc1cccc2ccccc12` , please?
[A] 0.26

[Q] Any idea what Efficiency Ligand was measured for CC(C)Cn1c2c(c(=O)[nH]c1=O)C(NC(=O)CCC1CCCCC1)(C(F)(F)F)C(=O)N2 (stereo not drawn) ?
[A] 0.29

[Q] For the compound `COc1ccc2c(CC(=O)NNC(=O)c3cc(-c4ccccc4)no3)coc2c1` , what Efficiency Ligand is on record?
[A] 0.31

[Q] For the compound `O=C(CCc1ccccc1)Nc1nnc(Cc2cccs2)o1` , what Efficiency Ligand is on record?
[A] 0.41
